- Tested on: Mobile stages of sea lice (pre-adults, adults of Lepeophtheirus salmonis)
- test: Adult sea lice contact assay
- test-parameters: pre-adult/adult L. salmonis, assessed after approx. 1 and 24 hours, time of EC50 not stated, read-out: EC50 (sea lice inhibition, dead+damaged)
pEC50: −log10 of the molar value.
Assign pEC50 to each entry below.

Data request: Tell me the measured pEC50 of O=C(Nc1c(F)cccc1F)c1cc(NC(=O)C2C(c3cc(Cl)cc(Cl)c3)C2(Cl)Cl)ccc1Cl (stereo not drawn) , please.
Data returned: 7.60 to 9.00

Data request: Also `O=C(Nc1ncc(F)cc1F)c1cc(NC(=O)[C@H]2[C@H](c3ccc(F)c(Cl)c3)C2(Cl)Cl)ccc1Cl` ?
Data returned: 8.00 to 9.00

Data request: Also O=C(Nc1ncc(F)cc1F)c1cc(NC(=O)C2C(c3cc(C(F)(F)F)cc(C(F)(F)F)c3)C2(Cl)Cl)cc(F)c1F (stereo not drawn) ?
Data returned: 8.00 to 9.00

Data request: Also O=C(Nc1ncc(F)cc1F)c1cc(NC(=O)C2C(c3cc(Cl)cc(Cl)c3)C2(Cl)Cl)cc(F)c1F (stereo not drawn) ?
Data returned: 8.00 to 9.00

Data request: Also `Cc1ccccc1NC(=O)c1cc(NC(=O)[C@H]2[C@H](c3cc(Cl)cc(Cl)c3)C2(Cl)Cl)ccc1Cl` ?
Data returned: 8.00 to 9.00

Data request: Also `O=C(Nc1ncc(F)cn1)c1cc(NC(=O)[C@H]2[C@H](c3cc(Cl)cc(Cl)c3)C2(Cl)Cl)ccc1Cl` ?
Data returned: 8.00 to 9.00

Data request: Also `O=C(Nc1ccncn1)c1cc(NC(=O)[C@H]2[C@H](c3cc(Cl)cc(Cl)c3)C2(Cl)Cl)ccc1Cl` ?
Data returned: 7.60 to 9.00

Data request: Also `O=C(Nc1c(F)cc(F)cc1F)c1cc(NC(=O)[C@H]2[C@H](c3cc(Cl)cc(Cl)c3)C2(Cl)Cl)ccc1Cl` ?
Data returned: 7.60 to 9.00

Data request: Also `Cc1cc(NC(=O)c2cc(NC(=O)[C@H]3[C@H](c4cc(Cl)cc(Cl)c4)C3(Cl)Cl)ccc2Cl)ncc1F` ?
Data returned: 8.00 to 9.00

Data request: Also O=C(Nc1ncc(F)cc1F)c1cc(NC(=O)C2C(c3cc(Cl)c(F)c(Cl)c3)C2(Cl)Cl)ccc1Cl (stereo not drawn) ?
Data returned: 8.00 to 9.00

Data request: Also O=C(Nc1c(F)cc(F)cc1F)c1cc(NC(=O)C2C(c3cc(Cl)cc(Cl)c3)C2(Cl)Cl)ccc1Cl (stereo not drawn) ?
Data returned: ≥ 9.00

Data request: Also `O=C(Nc1ccc(F)cc1F)c1cc(NC(=O)[C@H]2[C@H](c3cc(Cl)cc(Cl)c3)C2(Cl)Cl)ccc1F` ?
Data returned: 8.00 to 9.00

---

- System: Mobile stages of sea lice (pre-adults, adults of Lepeophtheirus salmonis)
- test: Adult sea lice contact assay
- test-parameters: pre-adult/adult L. salmonis, assessed after approx. 1 and 24 hours, time of EC50 not stated, read-out: EC50 (sea lice inhibition, dead+damaged)
Assign EC50 to each entry below.

Data request: Record O=C(Nc1ncc(F)cc1F)c1cc(NC(=O)[C@H]2[C@H](c3cc(Cl)cc(Cl)c3)C2(Cl)Cl)ccc1F [Compound 1376] : what is its EC50 with Mobile stages of sea lice (pre-adults, adults of Lepeophtheirus salmonis)?
Data returned: ≤ 1 nM

Data request: Also Cc1c(F)cc(NC(=O)[C@H]2[C@H](c3cc(Cl)cc(Cl)c3)C2(Cl)Cl)cc1C(=O)Nc1ncc(F)cc1F [Compound 1368] ?
Data returned: 1 to 10 nM

Data request: Also O=C(Nc1ccc(F)cc1F)c1cc(NC(=O)C2C(c3cc(C(F)(F)F)cc(C(F)(F)F)c3)C2(Cl)Cl)ccc1F (stereo not shown) [Compound 1387] ?
Data returned: 1 to 10 nM

Data request: Also O=C(Nc1cnc(F)cc1F)c1cc(NC(=O)[C@H]2[C@H](c3cc(Cl)cc(Cl)c3)C2(Cl)Cl)ccc1Cl [Compound 1366] ?
Data returned: 1 to 10 nM

Data request: Also O=C(Nc1cnc(F)cc1F)c1cc(NC(=O)[C@H]2[C@H](c3cc(Cl)c(Cl)c(Cl)c3)C2(Cl)Cl)ccc1Cl [Compound 1380] ?
Data returned: 1 to 10 nM

Data request: Also O=C(Nc1ncc(F)cc1F)c1cc(NC(=O)[C@H]2[C@H](c3cc(Cl)cc(Cl)c3)C2(Cl)Cl)cc(F)c1Cl [Compound 1378] ?
Data returned: 1 to 25 nM

Data request: Also Cc1ccc(NC(=O)[C@H]2[C@H](c3cc(Cl)cc(Cl)c3)C2(Cl)Cl)cc1C(=O)Nc1ccc(F)cc1 [Compound 1101] ?
Data returned: 1 to 10 nM

Data request: Also O=C(Nc1cncnc1)c1cc(NC(=O)[C@H]2[C@H](c3cc(Cl)cc(Cl)c3)C2(Cl)Cl)ccc1Cl [Compound 1371] ?
Data returned: 1 to 10 nM

Data request: Also O=C(Nc1ncc(F)cc1F)c1cccc(NC(=O)[C@H]2[C@H](c3cc(Cl)cc(Cl)c3)C2(Cl)Cl)c1F [Compound 1379] ?
Data returned: 1 to 25 nM

Data request: Also O=C(Nc1ncc(F)cc1F)c1cc(NC(=O)C2C(c3cc(C(F)(F)F)cc(C(F)(F)F)c3)C2(Cl)Cl)ccc1Cl (stereo not shown) [Compound 1385] ?
Data returned: 1 to 10 nM

Data request: Also O=C(Nc1ncc(F)cc1F)c1cc(NC(=O)[C@H]2[C@H](c3cc(Cl)cc(Cl)c3)C2(Cl)Cl)ccc1Cl [Compound 1097] ?
Data returned: 1 to 10 nM

Data request: Also O=C(Nc1ccccc1)c1cc(NC(=O)[C@H]2[C@H](c3cc(Cl)cc(Cl)c3)C2(Cl)Cl)ccc1Cl [Compound 1099] ?
Data returned: 1 to 10 nM

Data request: Also O=C(Nc1ncc(F)cc1F)c1c(F)ccc(NC(=O)[C@H]2[C@H](c3cc(Cl)cc(Cl)c3)C2(Cl)Cl)c1F [Compound 1394] ?
Data returned: 1 to 10 nM

---

- System: Mobile stages of sea lice (pre-adults, adults of Lepeophtheirus salmonis)
- test: Adult sea lice contact assay
- test-parameters: pre-adult/adult L. salmonis, assessed after approx. 1 and 24 hours, time of EC50 not stated, read-out: EC50 (sea lice inhibition, dead+damaged)
pEC50: −log10 of the molar value.
Assign pEC50 to each entry below.

Data request: Tell me the measured pEC50 of `O=C(Nc1c(F)cccc1F)c1cc(NC(=O)[C@H]2[C@H](c3cc(Cl)cc(Cl)c3)C2(Cl)Cl)ccc1Cl` , please.
Data returned: 8.00 to 9.00

Data request: Also O=C(Nc1ncc(F)cc1F)c1cc(NC(=O)C2C(c3cc(Cl)cc(C(F)(F)F)c3)C2(Cl)Cl)ccc1Cl (stereo not drawn) ?
Data returned: ≥ 9.00

Data request: Also `O=C(Nc1ncc(F)cc1F)c1cc(NC(=O)[C@H]2[C@H](c3ccc(Cl)c(Cl)c3)C2(Cl)Cl)ccc1Cl` ?
Data returned: 8.00 to 9.00

Data request: Also `O=C(Nc1ncc(F)cc1F)c1cc(NC(=O)[C@H]2[C@H](c3cc(F)c(F)c(F)c3)C2(Cl)Cl)ccc1F` ?
Data returned: ≥ 9.00

Data request: Also `O=C(Nc1c(F)ccnc1F)c1cc(NC(=O)[C@H]2[C@H](c3cc(Cl)cc(Cl)c3)C2(Cl)Cl)ccc1Cl` ?
Data returned: 8.00 to 9.00

Data request: Also `O=C(Nc1ccc(F)cc1F)c1cc(NC(=O)[C@H]2[C@H](c3cc(F)c(F)c(F)c3)C2(Cl)Cl)ccc1Cl` ?
Data returned: 8.00 to 9.00

The origin of these recorded values is patent US20240316045A1.
